Reported values of Papp at 15 h for individual entries
Run Description: in vitro
Particulars: PAMPA, pH 7.4
Measured Property: Papp at 15 h (×10⁻⁶ cm/s)

Mol Smiles: CC(=O)N[C@H](C(=O)N1C[C@H](O)C[C@H]1C(=O)NCc1ccc(-c2scnc2C)cc1)C(C)(C)SCCCCNC(=O)C[C@@H]1N=C(c2ccc(Cl)cc2)c2c(sc(C)c2C)-n2c(C)nnc21
Observed Value: 0.002

Mol Smiles: CC(=O)N1c2ccc(-c3ccc(C(=O)NCCOCCOCC(=O)N[C@H](C(=O)N4C[C@H](O)C[C@H]4C(=O)NCc4ccc(-c5scnc5C)cc4)C(C)(C)C)cc3)cc2[C@H](Nc2ccc(Cl)cc2)C[C@@H]1C
Observed Value: 0.3

Mol Smiles: Cc1ncsc1-c1ccc(CNC(=O)[C@@H]2C[C@@H](O)CN2C(=O)[C@@H](NC(=O)COCCOCCNC(=O)C[C@@H]2N=C(c3ccc(Cl)cc3)c3c(sc(C)c3C)-n3c(C)nnc32)C(C)(C)C)cc1
Observed Value: 0.6

Mol Smiles: CC(=O)N1c2ccc(-c3ccc(C(=O)NCCOCCOCCOCCOCC(=O)N[C@H](C(=O)N4C[C@H](O)C[C@H]4C(=O)NCc4ccc(-c5scnc5C)cc4)C(C)(C)C)cc3)cc2[C@H](Nc2ccc(Cl)cc2)C[C@@H]1C
Observed Value: 0.16

Mol Smiles: Cc1ncsc1-c1ccc(CNC(=O)[C@@H]2C[C@@H](O)CN2C(=O)[C@@H](NC(=O)COCCOCCOCCNC(=O)C[C@@H]2N=C(c3ccc(Cl)cc3)c3c(sc(C)c3C)-n3c(C)nnc32)C(C)(C)C)cc1
Observed Value: 0.03

Mol Smiles: CC(=O)N[C@H](C(=O)N1C[C@H](O)C[C@H]1C(=O)NCc1ccc(-c2scnc2C)cc1)C(C)(C)SCCOCCOCCNC(=O)C[C@@H]1N=C(c2ccc(Cl)cc2)c2c(sc(C)c2C)-n2c(C)nnc21
Observed Value: 0.003

Mol Smiles: Cc1ncsc1-c1ccc(CNC(=O)[C@@H]2C[C@H](O)CN2C(=O)[C@@H](NC(=O)COCCOCCOCCOCCOCCOCC(=O)N[C@H](C(=O)N2C[C@@H](O)C[C@H]2C(=O)NCc2ccc(-c3scnc3C)cc2)C(C)(C)C)C(C)(C)C)cc1
Observed Value: 0.002

Mol Smiles: Cc1ncsc1-c1ccc(CNC(=O)[C@@H]2C[C@@H](O)CN2C(=O)[C@@H](NC(=O)[C@H](Cc2ccccc2)NC(=O)COCCOCCOCCNC(=O)C[C@@H]2N=C(c3ccc(Cl)cc3)c3c(sc(C)c3C)-n3c(C)nnc32)C(C)(C)C)cc1
Observed Value: 0.006

Mol Smiles: CC(=O)N[C@H](C(=O)N1C[C@H](O)C[C@H]1C(=O)NCc1ccc(-c2scnc2C)cc1)C(C)(C)SCCOCCNC(=O)C[C@@H]1N=C(c2ccc(Cl)cc2)c2c(sc(C)c2C)-n2c(C)nnc21
Observed Value: 0.005
